Provenance of the data: patent US20090285813A1

Molecular target: human CD3 (human) (UniProt P07766)
Sequence (P07766 23-207): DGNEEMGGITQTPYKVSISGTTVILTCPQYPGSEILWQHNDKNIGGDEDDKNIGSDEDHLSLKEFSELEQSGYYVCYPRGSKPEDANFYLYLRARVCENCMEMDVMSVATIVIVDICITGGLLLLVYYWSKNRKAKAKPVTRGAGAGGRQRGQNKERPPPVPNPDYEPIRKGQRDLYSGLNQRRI
Assay: cell-based or functional assay
READOUT_LABEL: Apo-One Apoptosis Assay, 50 ng/ml
The answer should be a number; do not append a unit.

INSERT INTO assay_data (binder, readout_label, assay_value) VALUES
  ('anti-CD3 HuFR antibody 8 (heavy chain BD20611, light chain BD21137) (antibody, part only; not given: few VH framework 4 residues, V domains shown, part only) VH, part: QVQLVESGAEVKKPGASVKVSCKASGYTFTRYTMHWVRQAPGKGLEWMGYINPSRGYTNYNQKFKDRLTISKDTSKNQVVLTMTNMDPVDTATYYCARYYDDHYCLDYVTVSSASTKGPS VL: DIQMTQSPSTLSASVGDRVTITCSASSSVSYMNWYQQKPGQPPKLLIYDTSKLASGVPSRFSGSGSGTDFTFTISSLQPEDIATYYCQQWSSNPFTFGQGTKVEIKFGQGTKVEIKR', 'Apo-One Apoptosis Assay, 50 ng/ml', 2560);

Query: // query Apo-One Apoptosis Assay, 50 ng/ml value for entry anti-CD3 HuFR antibody 7 (heavy chain BD20611, light chain BD21136) (antibody, part only; not given: Heavy stretch before framework 4, V domains shown, part only) VH, part: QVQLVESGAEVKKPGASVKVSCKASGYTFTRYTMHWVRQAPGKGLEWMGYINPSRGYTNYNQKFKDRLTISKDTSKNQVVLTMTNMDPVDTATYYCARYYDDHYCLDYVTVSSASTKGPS VL: DIQMTQSPSTLSASVGDRVTITCSASSSVSYMNWYQQKPGKAPKLLIYDTSKLASGIPDRFSGSGSGTDFTLTISRLEPEDFAVYYCQQWSSNPFTFGQGTKVEIKFGQGTKVEIKR
Result: 4740

Query: // query Apo-One Apoptosis Assay, 50 ng/ml value for entry anti-CD3 HuFR antibody 2 (heavy chain BD20613, light chain BD21131) (antibody, part only; not given: few VH framework 4 residues, V domains shown, part only) VH, part: QVQLQESGPGLVKPSETLSLTCAVSGYTFTRYTMHWVRQAPGKGLEWVGYINPSRGYTNYNQKFKDRFTISRDDSKNTAYLQMNSLKTEDTAVYYCTRYYDDHYCLDYVTVSSASTKGPS VL: DIQMTQSPSTLSASVGDRVTITCSASSSVSYMNWYQQKPGQAPRLLIYDTSKLASGVPDRFSGSGSGTDFTLKISRVEAEDVGVYYCQQWSSNPFTFGQGTKVEIKFGQGTKVEIKR
Result: 2160

Query: Looking for the measured Apo-One Apoptosis Assay, 50 ng/ml of anti-CD3 HuFR antibody 3 (heavy chain BD20611, light chain BD21132) (antibody, part only; not given: Heavy stretch before framework 4, V domains shown, part only) VH, part: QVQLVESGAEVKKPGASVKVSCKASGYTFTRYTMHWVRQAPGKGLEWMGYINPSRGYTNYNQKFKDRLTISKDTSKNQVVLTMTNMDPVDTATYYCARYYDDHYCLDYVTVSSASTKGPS VL: EIVLTQSPATLSLSPGERATLSCSASSSVSYMNWYQQKPGKAPKLLIYDTSKLASGVPSRFSGSGSGTEFTLTISSLQPDDFATYYCQQWSSNPFTFGQGTKVEIKFGQGTKVEIKR , can you help?
Result: 1130

Query: Quick one: Apo-One Apoptosis Assay, 50 ng/ml for anti-CD3 HuFR antibody 6 (heavy chain BD20611, light chain BD21135) (antibody, part only; not given: Heavy stretch before framework 4, V domains shown, part only) VH, part: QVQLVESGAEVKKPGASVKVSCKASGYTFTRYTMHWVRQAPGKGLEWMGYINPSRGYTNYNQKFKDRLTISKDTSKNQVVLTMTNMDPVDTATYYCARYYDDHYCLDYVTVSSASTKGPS VL: EIVMTQSPATLSVSPGERATLSCSASSSVSYMNWYQQKPGQAPRLLIYDTSKLASGVPDRFSGSGSGTDFTLTISSLQAEDVAVYYCQQWSSNPFTFGQGTKVEIKFGQGTKVEIKR ?
Result: 3500
